- Test system: J774.A1
- experimental.details: Cytotoxicity against mouse J774.A1 cells assessed as reduction in cell viability at 10 uM measured after 5 hrs by Cell TiterGlo Luminescent assay relative to control
- Format: cell-based
- details: j774.a1, 5 h
Short version: Activity at least 90% is Fulfilled, less is Not fulfilled.

Record excerpt, results attached:
                        structure_as_smiles    label_class
0  CC(C)OC(=O)[C@H](Cc1ccccc1)NP(=O)(COCCc1nc(N)sc1-c1ccccc1)N[C@@H](Cc1ccccc1)C(=O)OC(C)C      Fulfilled
1  CNC(=O)c1cccc(-c2sc(N)nc2CCOCP(=O)(N[C@@H](Cc2ccccc2)C(=O)OC(C)C)N[C@@H](Cc2ccccc2)C(=O)OC(C)C)c1      Fulfilled
2  CC(C)OC(=O)[C@H](Cc1ccccc1)NP(=O)(COCCc1nc(N)sc1-c1ccccc1OCc1ccccc1)N[C@@H](Cc1ccccc1)C(=O)OC(C)C      Fulfilled
3  CNS(=O)(=O)c1ccc(-c2sc(N)nc2CCOCP(=O)(N[C@@H](Cc2ccccc2)C(=O)OC(C)C)N[C@@H](Cc2ccccc2)C(=O)OC(C)C)cc1      Fulfilled
4  CC(C)OC(=O)[C@H](Cc1ccccc1)NP(=O)(COCc1nc(N)sc1-c1ccccc1)N[C@@H](Cc1ccccc1)C(=O)OC(C)C  Not fulfilled

Q) Identify whether the reported Activity of the following compound is 90% or greater: `COc1cc(OC)cc(-c2sc(N)nc2CCOCP(=O)(N[C@@H](Cc2ccccc2)C(=O)OC(C)C)N[C@@H](Cc2ccccc2)C(=O)OC(C)C)c1`
A) Not fulfilled

Q) Now this one: `CCCCOc1cccc(-c2sc(N)nc2CCOCP(=O)(N[C@@H](Cc2ccccc2)C(=O)OC(C)C)N[C@@H](Cc2ccccc2)C(=O)OC(C)C)c1`
A) Not fulfilled

Q) Now this one: `CC(C)OC(=O)[C@H](Cc1ccccc1)NP(=O)(COCCc1nc(N)sc1-c1cccc(F)c1)N[C@@H](Cc1ccccc1)C(=O)OC(C)C`
A) Fulfilled

Q) Now this one: `CNC(=O)c1ccc(-c2sc(N)nc2CCOCP(=O)(N[C@@H](Cc2ccccc2)C(=O)OC(C)C)N[C@@H](Cc2ccccc2)C(=O)OC(C)C)cc1`
A) Fulfilled

Q) Now this one: `CC(C)OC(=O)[C@H](Cc1ccccc1)NP(=O)(COCc1csc(N)n1)N[C@@H](Cc1ccccc1)C(=O)OC(C)C`
A) Not fulfilled

Q) Now this one: `CC(C)OC(=O)[C@H](Cc1ccccc1)NP(=O)(COCCn1cnc2c(N)ncnc21)N[C@@H](Cc1ccccc1)C(=O)OC(C)C`
A) Fulfilled

Q) Now this one: `CC(C)OC(=O)[C@H](Cc1ccccc1)NP(=O)(COCCc1nc(N)sc1Sc1ccccc1)N[C@@H](Cc1ccccc1)C(=O)OC(C)C`
A) Not fulfilled

----------
Quick list: IC50 per entry.
- experimental.details: Inhibition of Bordetella pertussis ACT exposed to mouse J774.A1 cells assessed as inhibition of ACT-induced cAMP accumulation cells pretreated for 5 hrs measured after 30 mins followed by enzyme addition by immunoassay
- Format: cell-based
Just the number please, in µM, no unit attached.

Below are worked cases with known answers.
                                   molecule  assay_value
0  CNC(=O)c1cccc(-c2sc(N)nc2CCOCP(=O)(N[C@@H](Cc2ccccc2)C(=O)OC(C)C)N[C@@H](Cc2ccccc2)C(=O)OC(C)C)c1         8.45
1  CC(C)Cc1sc(N)nc1-c1ccc(P(=O)(NC(Cc2ccccc2)C(=O)OC(C)C)N[C@@H](Cc2ccccc2)C(=O)OC(C)C)o1 (some centres not stated)         2.12
2  CC(C)OC(=O)[C@H](Cc1ccccc1)NP(=O)(COCCc1nc(N)sc1-c1cccnc1)N[C@@H](Cc1ccccc1)C(=O)OC(C)C         2.62

Q) Quick one: IC50 of `CC(C)OC(=O)[C@H](Cc1ccccc1)NP(=O)(COCCn1cnc2c(N)ncnc21)N[C@@H](Cc1ccccc1)C(=O)OC(C)C` ?
A) 0.15

Q) Now this one: `CC(C)Cc1sc(N)nc1-c1ccc(P(=O)(O)N[C@@H](Cc2ccccc2)C(=O)OC(C)C)o1`
A) 14.2

----------
- System: J774.A1
- experimental.details: Cytotoxicity against mouse J774.A1 cells assessed as reduction in cell viability at 10 uM measured after 5 hrs by Cell TiterGlo Luminescent assay relative to control
- Format: cell-based
- details: j774.a1, 5 h
Quick list: Activity per entry.
Just the number please, in %, no unit attached.

In [3]: df
Out[3]:
                        structure_as_smiles  assay_value
0  CC(C)Cc1sc(N)nc1-c1ccc(P(=O)(O)N[C@@H](Cc2ccccc2)C(=O)OC(C)C)o1           86

Q) Quick one: Activity of `CC(C)OC(=O)[C@H](Cc1ccccc1)NP(=O)(COCCc1csc(N)n1)N[C@@H](Cc1ccccc1)C(=O)OC(C)C` ?
A) 72

Q) Now this one: `COc1ccc(-c2sc(N)nc2CCOCP(=O)(N[C@@H](Cc2ccccc2)C(=O)OC(C)C)N[C@@H](Cc2ccccc2)C(=O)OC(C)C)c(C)c1`
A) 57

----------
Quick list: pIC50 per entry.
- tested.target: Calmodulin-sensitive adenylate cyclase (Bacillus anthracis)
- Sequence (P40136 whole entry): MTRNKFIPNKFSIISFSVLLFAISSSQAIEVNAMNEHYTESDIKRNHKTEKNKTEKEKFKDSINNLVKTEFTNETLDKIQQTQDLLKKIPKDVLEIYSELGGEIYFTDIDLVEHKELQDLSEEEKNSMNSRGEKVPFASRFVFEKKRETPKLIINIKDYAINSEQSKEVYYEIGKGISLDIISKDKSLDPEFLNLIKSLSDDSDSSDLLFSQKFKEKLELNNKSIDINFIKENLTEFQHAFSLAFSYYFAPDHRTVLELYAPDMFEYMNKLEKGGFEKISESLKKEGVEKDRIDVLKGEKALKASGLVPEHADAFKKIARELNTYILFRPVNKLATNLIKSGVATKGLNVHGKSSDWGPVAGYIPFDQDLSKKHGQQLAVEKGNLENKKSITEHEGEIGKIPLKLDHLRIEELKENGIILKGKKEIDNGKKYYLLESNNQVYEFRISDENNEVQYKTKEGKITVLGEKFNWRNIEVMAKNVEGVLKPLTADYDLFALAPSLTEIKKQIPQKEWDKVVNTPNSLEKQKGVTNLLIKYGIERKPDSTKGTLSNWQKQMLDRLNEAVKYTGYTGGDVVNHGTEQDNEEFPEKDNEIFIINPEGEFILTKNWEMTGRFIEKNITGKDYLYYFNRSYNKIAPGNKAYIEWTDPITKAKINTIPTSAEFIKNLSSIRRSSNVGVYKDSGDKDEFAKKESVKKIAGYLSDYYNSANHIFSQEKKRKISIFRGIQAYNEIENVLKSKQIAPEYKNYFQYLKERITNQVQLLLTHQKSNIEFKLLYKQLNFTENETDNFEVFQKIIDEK
Lab note: report pIC50 as minus log10 of the concentration in molar units, number only.

Below are worked cases with known answers.
                                   compound                             tested_target  metric  assay_value
0  Nc1ncnc2c1ncn2CCOCP(=O)(O)OP(=O)(O)OP(=O)(O)O [ADEFOVIR DIPHOSPHATE]  Calmodulin-sensitive adenylate cyclase (Bacillus anthracis)   pIC50         7.44
1  CC(C)Cc1sc(N)nc1-c1ccc(P(=O)(O)OP(=O)(O)OP(=O)(O)O)o1  Calmodulin-sensitive adenylate cyclase (Bacillus anthracis)   pIC50         5.30

Now, please, on to the next compound.
Q) Quick one: pIC50 of `Nc1nc(CCOCP(=O)(O)OP(=O)(O)OP(=O)(O)O)c(-c2ccccc2OCc2ccccc2)s1` ?
A) 5.11

----------
- Tested on: J774.A1
- experimental.details: Cytotoxicity against mouse J774.A1 cells assessed as reduction in cell viability at 10 uM measured after 5 hrs by Cell TiterGlo Luminescent assay relative to control
- Format: cell-based
- details: j774.a1, 5 h
metric: Activity (%)
Just the number please, in %, no unit attached.

In [3]: df
Out[3]:
                        structure_as_smiles  unit_annotation  assay_value
0  CC(C)OC(=O)[C@H](Cc1ccccc1)NP(=O)(COCCc1nc(N)sc1-c1cccc(OC(C)C)c1)N[C@@H](Cc1ccccc1)C(=O)OC(C)C                %           44

Q) Quick one: Activity of `CC(C)OC(=O)[C@H](Cc1ccccc1)NP(=O)(COCCc1nc(N)sc1-c1cccc(OCc2ccccc2)c1)N[C@@H](Cc1ccccc1)C(=O)OC(C)C` ?
A) 72

Q) Now this one: `CC(C)OC(=O)[C@H](Cc1ccccc1)NP(=O)(COCCc1nc(N)sc1-c1cccnc1)N[C@@H](Cc1ccccc1)C(=O)OC(C)C`
A) 99

Q) Now this one: `CNS(=O)(=O)c1cccc(-c2sc(N)nc2CCOCP(=O)(N[C@@H](Cc2ccccc2)C(=O)OC(C)C)N[C@@H](Cc2ccccc2)C(=O)OC(C)C)c1`
A) 99

Q) Now this one: `CC(C)OC(=O)[C@H](Cc1ccccc1)NP(=O)(COCCc1nc(N)sc1-c1ccc(OC(C)C)cc1)N[C@@H](Cc1ccccc1)C(=O)OC(C)C`
A) 81
